target: HIV-1 Env of ZM249.1 (HIV-1)
experimentalProtocol: cell-based or functional assay
This section presents binders with their documented neutralization IC50 values.
metricName: neutralization IC50 (µg/mL)

CAP256-VRC26.04 (antibody, V domains shown) VH: EVQLVESGGGVVQPGKSLRLSCAASQFSFNRYGMHWVRQAPGKGLEWVAAISYDGTDKYHADKVWGRFTISRDNSKNTLYLQMNSLRAEDTALYYCAKDLREDECEEWWSDYYDFGKQLPCRKSRGVAGIFDKWGQGTMVIVSS VL: QPVLTQPPSVSAAPGQKVTISCSGSSSNIGNNFVSWYQQRPGTAPSLLIYETNKRPSGIPDRFSGSKSATSATLAITGLQTGDEADYYCATWAASLTSARVFGTGTKVIVSG	11.4
CAP256-VRC26.11 (antibody, V domains shown) VH: EVQLVESGGGVVPPGKSLTLSCVASRFTFSAFGMHWVRQAPGKGLEWVASISFAGIKKYYADSVKGRFSISRDNSNTLFLQMNGLRGEDTGLYHCVKDMRELECEEWASDYYDFGKPQPCLDRRGVSGISAWWGPGTMVTVSS VL: QSVLTQPPSVSAAPGQNVTISCSGPPSHIEKNDVSWYQRLPGMAPKMVIYESKRRPLGIPVRFSASRSGSSATLVITGLQTADEADYYCGTWDGRMNFGTGTTVSVLG	34.5
